Reference source for all entries: patent US20240132589A1

# TEST_SYSTEM: T1, LILRB2-Fc protein (human, UniProt Q8N423 22-460, limits assumed)
# T1 construct: also called human LILRB2-Fc; not shown: Fc part
# T1 sequence (Q8N423 22-460 limits assumed): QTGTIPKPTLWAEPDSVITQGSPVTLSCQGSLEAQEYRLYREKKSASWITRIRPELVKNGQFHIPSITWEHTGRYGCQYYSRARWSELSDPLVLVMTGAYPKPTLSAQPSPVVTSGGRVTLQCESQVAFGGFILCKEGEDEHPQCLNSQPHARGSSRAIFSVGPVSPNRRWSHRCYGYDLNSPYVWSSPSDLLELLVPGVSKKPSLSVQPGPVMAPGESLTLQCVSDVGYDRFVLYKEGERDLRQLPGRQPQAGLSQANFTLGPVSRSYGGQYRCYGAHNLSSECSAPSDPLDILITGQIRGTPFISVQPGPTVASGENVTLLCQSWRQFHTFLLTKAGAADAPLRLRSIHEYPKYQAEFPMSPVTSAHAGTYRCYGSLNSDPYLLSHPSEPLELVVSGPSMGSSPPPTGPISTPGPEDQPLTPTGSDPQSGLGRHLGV
# ASSAY_EXPLANATION: blocking ELISA, LILRB2-Fc binding to coated monomer HLA-G; Exp II
IC50 strictly less than 8 µg/mL = satisfied. Otherwise not satisfied.

Example entries begin here.
B2H4-44 (antibody, V domains shown, Humanized variant, human IgG4 / kappa) VH: EVQLLESGGRLVQPGTSLRLSCAVSGFSLSTYAMSWVRQAPGKGLEWIGWIYNDGSTYYAAWAKGRFTISKDTSKTTLYLQMNSLTVEDTATYFCAREGDYIGYFNIWGQGTLVTVSS VL: DIQMTQSPSSVSASVGDRVTITCQASQSIGSNLAWYQQKPGKAPKLLIYAAATLASGVPLRFSGSGSGTDFTLTISNLQPEDSATYYCQSYVSGSSDVAFGGGTKVEIK | satisfied
B2H4-35 (antibody, V domains shown, Humanized variant, human IgG4 / kappa) VH: QVQLVESGGRVVQPGTPLRLSCAASGFSLSTYAMSWVRQAPGKGLEWVAWIYNDGSTYYAAWAKGRFTISRDTSKNTLYLQTNSLKPDDTAVYYCAREGDYIGYFNIWGQGTLVTVSS VL: DVVMTQTPSSVSAALGGTVTIKCQASQSIGSNLAWYQLKPGQRPKLLIYAAATLASGGSSRFKGSGSGTDFTLTISSLEPADAATYYCQSYVSGSSDVAFGGGTEVVVK | satisfied
B2H4-25 (antibody, V domains shown, Humanized variant, human IgG4 / kappa) VH: EVQLVESGGDLATPGGSLRLSCAVSGFSLSTYAMSWVRQAPGKGLEWVGWIYNDGSTYYAAWAKGRFTISKDTSKTTVYLQMTSLRAEDTALYFCAREGDYIGYFNIWGQGTLVTVSS VL: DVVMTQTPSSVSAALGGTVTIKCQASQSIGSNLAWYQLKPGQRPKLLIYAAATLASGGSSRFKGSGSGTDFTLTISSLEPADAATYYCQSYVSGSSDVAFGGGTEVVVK | not satisfied

As a next step, examine the binder that follows.
Below 8 µg/mL on IC50? Entry B2H4-51 (antibody, V domains shown, Humanized variant, human IgG4 / kappa) VH: EVQLLESGGGLVQPGTSLTLSCAASGFSLSTYAMSWVRQAPGKGLEWIGWIYNDGSTYYAAWAKGRFTISKDTSKTTLYLQITSLRAEDTATYFCAREGDYIGYFNIWGQGTLVTVSS VL: DIQMTQSPSSLSASVGDRVTITCQASQSIGSNLAWYQLKPGQRPKLLIYAAATLASGVPSRFKGSGSGTDFTLTISSLQSEDAATYYCQSYVSGSSDVAFGGGTEVVVK
not satisfied
